- subject of test: T1, hOrai1-mOrai1 ECL2 (SKPPA) protein (human/mouse chimera, UniProt Q96D31 1-301)
- T1 construct: also called Ch
- run description: FACS, 293EBNA, RFI-POC grade
- Design: concentration or dose not given beside the values
readout: percent of control (POC) of FACS Geo Mean

Name the recorded percent of control (POC) of FACS Geo Mean for mAb 5C1.1 (antibody, human IgG2, lambda, V domains shown, fully human IgG2 lambda, Campaign 2) VH: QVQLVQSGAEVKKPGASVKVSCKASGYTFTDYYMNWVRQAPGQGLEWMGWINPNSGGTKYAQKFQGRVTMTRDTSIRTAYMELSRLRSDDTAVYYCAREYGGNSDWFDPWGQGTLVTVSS VL: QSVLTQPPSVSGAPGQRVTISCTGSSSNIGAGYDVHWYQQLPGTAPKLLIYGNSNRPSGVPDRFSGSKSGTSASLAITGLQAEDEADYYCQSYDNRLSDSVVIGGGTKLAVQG .
40 to 100%
